assay.target: MNK2a (Homo sapiens (Human), UniProt Q9HBH9)
Sequence (Q9HBH9 whole entry): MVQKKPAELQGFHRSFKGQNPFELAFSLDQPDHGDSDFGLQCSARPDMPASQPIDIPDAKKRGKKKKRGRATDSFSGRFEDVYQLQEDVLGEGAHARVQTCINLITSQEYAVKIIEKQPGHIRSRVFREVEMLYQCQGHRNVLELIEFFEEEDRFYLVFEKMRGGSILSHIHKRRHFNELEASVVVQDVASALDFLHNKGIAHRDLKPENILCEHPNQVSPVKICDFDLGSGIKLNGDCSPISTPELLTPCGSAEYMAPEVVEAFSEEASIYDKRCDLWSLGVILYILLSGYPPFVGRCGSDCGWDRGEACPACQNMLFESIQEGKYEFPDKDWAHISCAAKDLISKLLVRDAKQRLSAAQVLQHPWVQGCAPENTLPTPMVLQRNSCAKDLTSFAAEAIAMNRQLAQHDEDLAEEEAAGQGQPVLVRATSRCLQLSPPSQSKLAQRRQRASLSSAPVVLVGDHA
procedure.summary: MNK2a in vitro kinase assay (Assay 2), ADP-Glo
Type: biochemical
protocol.conditions: read-out: MNK2 IC50
measure.name: IC50 (nM)
Form entry: value (nM) — number only.

Cc1cc(N=S(C)(C)=O)cc2ncnc(Nc3ccc(F)cc3O[C@H](C)C(=O)N(CC(F)(F)F)CC(F)(F)F)c12 [Example 3.055]	3
Cc1cc(N=S(C)(C)=O)cc2ncnc(Nc3ccc(F)cc3O[C@H](C)C(=O)N[C@H]3CCOC3)c12 [Example 4.045]	3
Cc1cc(N=S(C)(C)=O)cc2ncnc(Nc3ccc(F)cc3O[C@H](C)C(=O)NC(CF)CF)c12 [Example 4.101]	3

Let us move to another entry and its IC50.
Value of IC50 reported for the molecule Cc1cc(N=S2(=O)CCCC2)cc2ncnc(Nc3ccc(F)cc3O[C@H](C)C(=O)NCCO)c12 [Example 4.072] is 3

###

Each entry below carries its reported inhibition at 1 µM.
assay.target: UniProt Q9BUB5
procedure.summary: MNK1 in vitro kinase assay (Assay 3), Z'-LYTE
Format: biochemical
protocol.conditions: compound concentration of 1 μM, read-out: MNK1 % INH
Dear colleague, please return just the value in %, with no unit written.

// sample COCC(C)NC(=O)[C@@H](C)Oc1cc(F)ccc1Nc1ncnc2cc(N=S3(=O)CCCC3)cc(C)c12 (some centres unmarked) [Example 4.040] , its inhibition at 1 µM was 97

inhibition at 1 µM for Cc1cc(N=S(C)(C)=O)cc2ncnc(Nc3ccc(F)cc3O[C@H](C)C(=O)N[C@@H]3CCC[C@H]3O)c12 [Example 4.065] is 93

In plain terms, Cc1cc([C@@H](C)Oc2cc(F)ccc2Nc2ncnc3cc(N=S4(=O)CCN(C)CC4)cc(C)c23)on1 [Example 7.001] has a documented inhibition at 1 µM of 98

inhibition at 1 µM for COC1CCN(C(=O)[C@@H](C)Oc2cc(F)ccc2Nc2ncnc3cc(N=S(C)(C)=O)cc(C)c23)CC1 [Example 4.073] is 70

Quick note, inhibition at 1 µM for Cc1cc(N=S(C)(C)=O)cc2ncnc(Nc3ccc(C(N)=O)cc3OC(C)C)c12 [Example 1.014] landed at 97

###

Measured inhibition at 1 µM, listed per entry for reference.
assay.target: MNK1 (Homo sapiens (Human), UniProt Q9BUB5)
Sequence (Q9BUB5 other isoform, or with tags, fused parts or gaps): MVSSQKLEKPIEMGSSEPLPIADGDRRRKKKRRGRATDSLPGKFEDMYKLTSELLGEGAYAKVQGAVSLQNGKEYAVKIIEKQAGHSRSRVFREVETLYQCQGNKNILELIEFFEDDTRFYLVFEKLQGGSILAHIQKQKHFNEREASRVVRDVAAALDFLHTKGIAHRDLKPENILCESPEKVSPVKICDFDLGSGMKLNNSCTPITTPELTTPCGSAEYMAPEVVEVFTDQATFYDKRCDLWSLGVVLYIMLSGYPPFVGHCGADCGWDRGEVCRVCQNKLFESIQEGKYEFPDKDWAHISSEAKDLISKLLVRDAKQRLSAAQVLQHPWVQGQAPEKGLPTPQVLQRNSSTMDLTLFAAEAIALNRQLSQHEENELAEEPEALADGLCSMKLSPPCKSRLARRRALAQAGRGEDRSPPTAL
procedure.summary: MNK1 in vitro kinase assay (Assay 3), Z'-LYTE
Type: biochemical
protocol.conditions: compound concentration of 1 μM, read-out: MNK1 % INH
Write the number in % without appending the unit.

CCN(C)C(=O)[C@@H](C)Oc1cc(F)ccc1Nc1ncnc2cc(N=S(C)(C)=O)cc(C)c12	86
Cc1cc(N=S2(=O)CCCC2)cc2ncnc(Nc3ccc(F)cc3O[C@H](C)C(=O)N(C)CC(C)C)c12	94
Cc1cc(N=S2(=O)CCCC2)cc2ncnc(Nc3ccc(F)cc3O[C@H](C)C(=O)NCC(C)O)c12 (stereo partly drawn)	97
CC(Oc1cc(F)ccc1Nc1ncnc2cc(N=S(C)(C)=O)cc(F)c12)C(F)(F)F (stereo not drawn)	80
Cc1cc(N=S(C)(C)=O)cc2ncnc(Nc3ccc(F)cc3O[C@H](C)CNS(C)(=O)=O)c12	38

# context switch: different compound, same inhibition at 1 µM
Sure, the documented inhibition at 1 µM for `Cc1cc(N=S(C)(C)=O)cc2ncnc(Nc3ccc(F)cc3OCC3(C#N)CCC3)c12` is 78

###

assay.target: UniProtKB Q9BUB5
procedure.summary: MNK1 in vitro kinase assay (Assay 3), Z'-LYTE
Assay type: biochemical
protocol.conditions: compound concentration of 1 μM, read-out: MNK1 % INH
measure.name: inhibition at 1 µM
A complete answer gives the number and then names the unit.

CCC(=O)NC[C@@H](C)Oc1cc(F)ccc1Nc1ncnc2cc(N=S(C)(C)=O)cc(C)c12 [Example 5.012]	61%
CCC(C)Oc1cc(F)ccc1Nc1ncnc2cc(N=S(C)(C)=O)cc(C)c12 (stereo not drawn) [Example 3.042]	78%

The record that follows has no inhibition at 1 µM shown yet.
Consider Cc1cc(N=S(C)(C)=O)cc2ncnc(Nc3ccc(F)cc3O[C@H](C)C(=O)NCCO)c12 [Example 4.029] . Its measured inhibition at 1 µM is 99%
